System: MEK
measurement.description: Cellular Assay for Measuring MEK Inhibition (inhibition of ERK phosphorylation in C26 cells, Western blot)
Format: cell-based, murine
condition.set: 1 μM; ERK phosphorylation in C26 cells
Output satisfied for % Inhibition @ 1 μM not less than 90%; output not satisfied otherwise.

[[record]]
compound = "COCC(O)CONC(=O)c1cc(Cl)c(F)c(F)c1Nc1ccc(F)cc1F (stereo not drawn)"
class_name = "not satisfied"

[[record]]
compound = "CC(C)(O)CONC(=O)c1cc(Br)c(F)c(F)c1Nc1ccc(I)cc1F"
class_name = "satisfied"

[[record]]
compound = "CC(C)(O)CONC(=O)c1ccc(F)c(F)c1Nc1ccc(F)cc1F"
class_name = "not satisfied"

[[record]]
compound = "O=C(NOCC(O)COc1ccccc1)c1cc(Cl)c(F)c(F)c1Nc1ccc(F)cc1F (stereo not drawn)"
class_name = "not satisfied"

[[record]]
compound = "Cc1cc(I)ccc1Nc1c(C(=O)NOCC(O)CO)cc(Br)c(F)c1F (stereo not drawn)"
class_name = "satisfied"


###

Items are presented alongside their recorded melting point.
endpoint.label: melting point

[[record]]
compound = "O=C(NOCCO)c1cc(F)c(F)cc1Nc1ccc(I)cc1F"
observed = "189.6 to 190.6 °C"

[[record]]
compound = "COCC(O)CONC(=O)c1cc(Br)c(F)c(F)c1Nc1ccc(I)cc1Cl (centres unmarked)"
observed = "139.5 to 140.1 °C"

[[record]]
compound = "Cc1cc(I)ccc1Nc1c(C(=O)NOCC(O)C(F)(F)F)ccc(F)c1F (centres unmarked)"
observed = "175.2 to 175.5 °C"

[[record]]
compound = "O=C(NOC[C@H](O)CO)c1cc(Cl)c(F)c(F)c1Nc1ccc(I)cc1Cl"
observed = "155 to 156 °C"

[[record]]
compound = "O=C(NOCCC(O)CO)c1cc(Cl)c(F)c(F)c1Nc1ccc(I)cc1Cl (centres unmarked)"
observed = "146 to 148 °C"

[[record]]
compound = "C=COCCONC(=O)c1ccc(F)c(F)c1Nc1ccc(I)cc1Cl"
observed = "141.5 to 143 °C"

[[record]]
compound = "CC(C)(CO)ONC(=O)c1cc(Cl)c(F)c(F)c1Nc1ccc(I)cc1F"
observed = "178 to 180 °C"

[[record]]
compound = "CC(C)(CO)ONC(=O)c1cc(Br)c(F)c(F)c1Nc1ccc(I)cc1Cl"
observed = "179 to 181 °C"

[[record]]
compound = "Cc1cc(I)ccc1Nc1c(C(=O)NOCCC(O)CO)cc(Cl)c(F)c1F (centres unmarked)"
observed = "135 to 138 °C"

[[record]]
compound = "O=C(NOCCCO)c1ccc(F)cc1Nc1ccc(I)cc1Cl"
observed = "158.8 to 160.8 °C"

[[record]]
compound = "O=C(NOCC(O)CO)c1ccc(F)c(F)c1Nc1ccc(Cl)cc1F (centres unmarked)"
observed = "114 to 114.9 °C"

[[record]]
compound = "O=C(NOCCO)c1cc(F)c(F)c(F)c1Nc1ccc(I)cc1F"
observed = "185 to 187 °C"

[[record]]
compound = "O=C(NOCC(O)CO)c1cc(Br)c(F)c(F)c1Nc1ccccc1F (centres unmarked)"
observed = "143.5 to 144.5 °C"

[[record]]
compound = "O=C(NOCCO)c1cc(Cl)c(F)c(F)c1Nc1ccc(F)cc1F"
observed = "161.6 to 162.4 °C"

[[record]]
compound = "O=C(NOCCCO)c1cc(Br)c(F)c(F)c1Nc1ccc(I)cc1Cl"
observed = "120 to 121 °C"

[[record]]
compound = "O=C(NOCC(O)CO)c1cc(F)c(F)c(F)c1Nc1ccc(I)cc1F (centres unmarked)"
observed = "157 to 160 °C"

[[record]]
compound = "O=C(NOCCO)c1cc(Br)c(F)cc1Nc1ccc(I)cc1F"
observed = "173 to 175 °C"


###

melting point values by entry
endpoint.label: melting point

[[record]]
molecule = "O=C(NOCCO)c1ccc(F)c(F)c1Nc1ccc(Br)cc1F [Example 22]"
observed = "146.1 to 146.4 °C"

[[record]]
molecule = "O=C(NOCC(O)CO)c1ccc(F)c(F)c1Nc1ccccc1F (stereo not shown) [Example 85]"
observed = "113 to 115 °C"

[[record]]
molecule = "O=C(NOCC(O)CO)c1ccc(F)cc1Nc1ccc(I)cc1F (stereo not shown) [Example 42]"
observed = "173 to 175 °C"

[[record]]
molecule = "O=C(NOCCO)c1cc(Br)c(F)c(F)c1Nc1ccc(I)cc1Cl [Example 14]"
observed = "190.2 to 200.2 °C"


Hey, just so you know, these numbers are from patent US6960614B2.
